The reported numbers originate from the RNAGym collection of RNA variant scans (doi:10.1093/nar/gkz1192).

B1: CPEB3 Ribozyme (parent)
chain: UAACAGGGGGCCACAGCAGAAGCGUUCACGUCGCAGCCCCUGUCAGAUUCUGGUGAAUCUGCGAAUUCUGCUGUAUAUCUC

Variants of: B1
assay: self-cleavage, relative activity (ratio to wild type); higher = more cleavage; in vitro, sequencing
Below: a set of entries, each annotated with reported self-cleavage.
Format: numeric value only, no unit, no commentary.

{"sequenceData": "UAACAGGGGACCACAGCAGAAGCGUUCACGCCGCAGCCCCUGUCAGAUUCUGGUGAAUCUGCGAAUUCUGCUGUAUAUCUC [G10A U31C]", "property": "self-cleavage", "measuredNumber": 0.2}

Need self-cleavage, item UAACAGGUGGCCACGGCAGAAGCGUUCACGUCGCAGCCCCUGUCAGAUUCUGGUGAAUCUGCGAAUUCUGCUGUAUAUCUC [G8U A15G]
0.24

Please look up its self-cleavage: AAACAGGGGGCCACAGCAGAAGCGUUCACGUCGCAGCCCCUGUCAGAUUCUGGUGAAUCUGCGAAUUCUGCUGAAUAUCUC [U1A U74A]
1.25

Give its self-cleavage value. Item: UAACAGGGGGCCACAGCAGAAGCGUUCACGUCGCAGCCCCUGUCAGACUCUGGUGAAUCUGCGAACUCUGCUGUAUAUCUC [U48C U66C]
0.27
